test system: broad leaf weeds (Lindernia pyxidaria and Monochoria vaginalis); assay: Test Example 1: herbicidal effect test by treatment of rice paddy soil (immediately after seeding); type: in vivo; conditions: in Lindernia, 336 h, Lindernia pyxidaria, 120 g/10a active ingredient, dry weight vs untreated area, 14 days after treatment, read-out: Herbicidal rate (%) Lindernia pyxidaria
readout: pest or weed control at 1200 g/ha (%)
Field: numeric (%). Do not append units.

Give pest or weed control at 1200 g/ha; test system broad leaf weeds (Lindernia pyxidaria and Monochoria vaginalis); molecule CCC(C)n1oc(=O)c(Cc2ccccc2N(S(=O)(=O)C(F)(F)F)S(=O)(=O)C(F)(F)F)c1C (stereo not drawn) [Compound 1-964] 100

For broad leaf weeds (Lindernia pyxidaria and Monochoria vaginalis), give the measured pest or weed control at 1200 g/ha of the entry COCC(C)n1oc(=O)c(Cc2ccccc2N(S(=O)(=O)C(F)(F)F)S(=O)(=O)C(F)(F)F)c1C (stereo not drawn) [Compound 1-997] 90

Send back broad leaf weeds (Lindernia pyxidaria and Monochoria vaginalis) pest or weed control at 1200 g/ha of Cc1c(Cc2ccccc2NS(=O)(=O)C(F)(F)F)c(=O)on1CC(C)C [Compound 1-105] only. 100

Provide measured pest or weed control at 1200 g/ha on broad leaf weeds (Lindernia pyxidaria and Monochoria vaginalis) for CC(=O)N(c1ccccc1Cc1c(C)n(CC(C)C)oc1=O)S(=O)(=O)C(F)(F)F [Compound 1-297] please. 100

Provide pest or weed control at 1200 g/ha, recorded with broad leaf weeds (Lindernia pyxidaria and Monochoria vaginalis), of CCC(C)n1oc(=O)c(Cc2ccccc2NS(=O)(=O)C(F)(F)F)c1C (stereo not drawn) [Compound 1-102] 100

Quote pest or weed control at 1200 g/ha with test system broad leaf weeds (Lindernia pyxidaria and Monochoria vaginalis) for COCC(C)n1oc(=O)c(Cc2ccccc2NS(=O)(=O)C(F)(F)F)c1C (stereo not drawn) [Compound 1-149] 90

For broad leaf weeds (Lindernia pyxidaria and Monochoria vaginalis), give the measured pest or weed control at 1200 g/ha of the entry CCC(C)n1oc(=O)c(Cc2ccccc2N(C(=O)OC)S(=O)(=O)C(F)(F)F)c1C (stereo not drawn) [Compound 1-577] 90

Under broad leaf weeds (Lindernia pyxidaria and Monochoria vaginalis): report pest or weed control at 1200 g/ha of Cc1c(Cc2ccccc2N(S(=O)(=O)C(F)(F)F)S(=O)(=O)C(F)(F)F)c(=O)on1CC(C)C [Compound 1-967] . 90

Lab note: broad leaf weeds (Lindernia pyxidaria and Monochoria vaginalis) assay, enter pest or weed control at 1200 g/ha for Cc1c(Cc2ccccc2N(S(=O)(=O)C(F)(F)F)S(=O)(=O)C(F)(F)F)c(=O)on1C(C)(C)C [Compound 1-963] here 90

====

system: Echinochloa crus-galli; experiment: Test Example 2: herbicidal effect test by treatment during growing period in paddy rice cultivation (seven days after seeding); assay type: in vivo; details: 120 g/10a active ingredient, assessed 14 days after treatment, dry weight vs untreated area
Label Criterion met when Herbicidal rate (%) Echinochloa crus-galli is strictly below 90%; otherwise label Criterion not met.

Here's an entry: CCC(C)Cn1oc(=O)c(Cc2ccccc2N(S(=O)(=O)C(F)(F)F)S(=O)(=O)C(F)(F)F)c1C (stereo not drawn) [Compound 1-972] . Is its Herbicidal rate (%) Echinochloa crus-galli below 90%? Criterion not met

Dear reviewer, please state whether Cc1c(Cc2cccc(Cl)c2NS(=O)(=O)C(F)(F)F)c(=O)on1C(C)C [Compound 1-33] has Herbicidal rate (%) Echinochloa crus-galli strictly beneath 90%. Criterion met

Take the compound Cc1c(Cc2ccccc2N(S(=O)(=O)C(F)(F)F)S(=O)(=O)C(F)(F)F)c(=O)on1Cc1ccc(F)cc1F [Compound 1-1026] and say whether its Herbicidal rate (%) Echinochloa crus-galli is less than 90%. Criterion met

Record CCCCn1oc(=O)c(Cc2ccccc2N(S(=O)(=O)C(F)(F)F)S(=O)(=O)C(F)(F)F)c1C [Compound 1-969] : is its Herbicidal rate (%) Echinochloa crus-galli strictly below 90%? Criterion not met

Is Herbicidal rate (%) Echinochloa crus-galli strictly under 90% for the entry Cc1c(Cc2ccccc2NS(=O)(=O)C(F)(F)F)c(=O)on1CC1(C)COC1 [Compound 1-229] ? Criterion met

Please indicate whether the reported Herbicidal rate (%) Echinochloa crus-galli of CCCCC(CC)Cn1oc(=O)c(Cc2ccccc2N(S(=O)(=O)C(F)(F)F)S(=O)(=O)C(F)(F)F)c1C (stereo not drawn) [Compound 1-980] is strictly below 90%. Criterion not met

Strictly below 90%: is that where Herbicidal rate (%) Echinochloa crus-galli of Cc1c(Cc2ccccc2NS(=O)(=O)C(F)(F)F)c(=O)on1Cc1ccc(Br)cc1 [Compound 1-187] sits? Criterion met

Could you please tell me whether Herbicidal rate (%) Echinochloa crus-galli recorded for Cc1c(Cc2ccccc2N(S(=O)(=O)C(F)(F)F)S(=O)(=O)C(F)(F)F)c(=O)on1CCCl [Compound 1-983] is less than 90%? Criterion met

====

Provide the reported Herbicidal rate (%) Monochoria vaginalis of each item.
test system: broad leaf weeds (Lindernia pyxidaria and Monochoria vaginalis); test: Test Example 1: herbicidal effect test by treatment of rice paddy soil (immediately after seeding); assay type: in vivo; details: Monochoria vaginalis, 120 g/10a active ingredient, dry weight vs untreated area, 14 days after treatment
The answer is to be given in %; state only the numeric part.

Return the recorded Herbicidal rate (%) Monochoria vaginalis value; entry: COCC(C)n1oc(=O)c(Cc2ccccc2N(C(=O)c2ccccc2)S(=O)(=O)C(F)(F)F)c1C (stereo not drawn) [Compound 1-479] 90

Identify measured Herbicidal rate (%) Monochoria vaginalis associated with Cc1c(Cc2ccccc2N(S(C)(=O)=O)S(=O)(=O)C(F)(F)F)c(=O)on1CC(C)C [Compound 1-892] 90

Give the reported Herbicidal rate (%) Monochoria vaginalis for this molecule. Cc1c(Cc2ccccc2N(S(=O)(=O)C(F)(F)F)S(=O)(=O)C(F)(F)F)c(=O)on1CCS(C)(=O)=O [Compound 1-1006] 60

# return recorded Herbicidal rate (%) Monochoria vaginalis for entry Cc1c(Cc2ccccc2N(S(=O)(=O)C(F)(F)F)S(=O)(=O)C(F)(F)F)c(=O)on1CC(C)c1ccccc1 (stereo not drawn) [Compound 1-1046] 80

Tell me measured Herbicidal rate (%) Monochoria vaginalis for Cc1c(Cc2ccccc2NS(=O)(=O)C(F)(F)F)c(=O)on1CCC(C)C [Compound 1-115] please. 90

Output Herbicidal rate (%) Monochoria vaginalis of C=CC(C)n1oc(=O)c(Cc2ccccc2NS(=O)(=O)C(F)(F)F)c1C (stereo not drawn) [Compound 1-136] 70

Input Cc1c(Cc2ccccc2NS(=O)(=O)C(F)(F)F)c(=O)on1Cc1ccc(Cl)cc1 [Compound 1-186] , output reported Herbicidal rate (%) Monochoria vaginalis. 100

Fill in reported Herbicidal rate (%) Monochoria vaginalis for this entry: CCC(C)Cn1oc(=O)c(Cc2ccccc2N(S(=O)(=O)C(F)(F)F)S(=O)(=O)C(F)(F)F)c1C (stereo not drawn) [Compound 1-972] 100

Identify Herbicidal rate (%) Monochoria vaginalis associated with the molecule Cc1c(Cc2ccccc2N(C(=O)OCC(C)C)S(=O)(=O)C(F)(F)F)c(=O)on1C(C)C [Compound 1-667] 90

Could you please provide reported Herbicidal rate (%) Monochoria vaginalis for CCC(CC)n1oc(=O)c(Cc2ccccc2N(C(=O)C(C)C)S(=O)(=O)C(F)(F)F)c1C [Compound 1-331] ? Thanks! 90

Answer with the recorded Herbicidal rate (%) Monochoria vaginalis of COc1ccc(Cn2oc(=O)c(Cc3ccccc3NS(=O)(=O)C(F)(F)F)c2C)cc1 [Compound 1-195] only. 60

Supply reported Herbicidal rate (%) Monochoria vaginalis belonging to this molecule: CCCC(C)n1oc(=O)c(Cc2ccccc2N(S(C)(=O)=O)S(=O)(=O)C(F)(F)F)c1C (stereo not drawn) [Compound 1-894] 60

For the molecule CCC(=O)N(c1ccccc1Cc1c(C)n(C(C)CC)oc1=O)S(=O)(=O)C(F)(F)F (stereo not drawn) [Compound 1-316] , give its reported Herbicidal rate (%) Monochoria vaginalis. 90

# return recorded Herbicidal rate (%) Monochoria vaginalis for entry Cc1c(Cc2ccccc2N(S(C)(=O)=O)S(=O)(=O)C(F)(F)F)c(=O)on1C(C)(C)C [Compound 1-889] 90

Input Cc1c(Cc2ccccc2NS(=O)(=O)C(F)(F)F)c(=O)on1C(C)C1CC1 (stereo not drawn) [Compound 1-144] , output reported Herbicidal rate (%) Monochoria vaginalis. 100

Input CCC(C)n1oc(=O)c(Cc2ccccc2N(C(=O)COC)S(=O)(=O)C(F)(F)F)c1C (stereo not drawn) [Compound 1-444] , output reported Herbicidal rate (%) Monochoria vaginalis. 90

Entry CCCC(c1ccccc1)n1oc(=O)c(Cc2ccccc2N(S(=O)(=O)C(F)(F)F)S(=O)(=O)C(F)(F)F)c1C (stereo not drawn) [Compound 1-1039] needs its Herbicidal rate (%) Monochoria vaginalis filled in; supply it. 80

Please supply the value of reported Herbicidal rate (%) Monochoria vaginalis for the item C=CCOC(=O)N(c1ccccc1Cc1c(C)n(C(C)CC)oc1=O)S(=O)(=O)C(F)(F)F (stereo not drawn) [Compound 1-706] 90

Tell me its Herbicidal rate (%) Monochoria vaginalis given CCC(C)Cn1oc(=O)c(Cc2ccccc2N(C(=O)OCC(C)C)S(=O)(=O)C(F)(F)F)c1C (stereo not drawn) [Compound 1-674] as the entry. 90

Check the records and state Herbicidal rate (%) Monochoria vaginalis for CSCCn1oc(=O)c(Cc2ccccc2N(S(C)(=O)=O)S(=O)(=O)C(F)(F)F)c1C [Compound 1-900] 90

Supply reported Herbicidal rate (%) Monochoria vaginalis belonging to this molecule: CCC(C)n1oc(=O)c(Cc2ccccc2N(C(=O)OCc2ccccc2)S(=O)(=O)C(F)(F)F)c1C (single isomer, unassigned) [1-783 (TLC bottom)] 90

Give recorded Herbicidal rate (%) Monochoria vaginalis. Cc1c(Cc2ccccc2NS(=O)(=O)C(F)(F)F)c(=O)on1CCOC(C)C [Compound 1-155] 60

For Cc1c(Cc2ccccc2NS(=O)(=O)C(F)(F)F)c(=O)on1Cc1ccc(Br)cc1 [Compound 1-187] , write its Herbicidal rate (%) Monochoria vaginalis. 90

Name the recorded Herbicidal rate (%) Monochoria vaginalis of the molecule listed here: Cc1c(Cc2ccccc2NS(=O)(=O)C(F)(F)F)c(=O)on1C(C)c1cccc(Cl)c1 (stereo not drawn) [Compound 1-206] 100

Identify measured Herbicidal rate (%) Monochoria vaginalis corresponding to CCCCC(CC)Cn1oc(=O)c(Cc2ccccc2NS(=O)(=O)C(F)(F)F)c1C (stereo not drawn) [Compound 1-130] 100

State, in one line, measured Herbicidal rate (%) Monochoria vaginalis of CCC(c1ccccc1)n1oc(=O)c(Cc2ccccc2NS(=O)(=O)C(F)(F)F)c1C (stereo not drawn) [Compound 1-211] 90

Dear colleague, please send me the reported Herbicidal rate (%) Monochoria vaginalis for COC(=O)N(c1ccccc1Cc1c(C)n(CC(C)C)oc1=O)S(=O)(=O)C(F)(F)F [Compound 1-580] when you can. 90

Please look at this molecule and report its Herbicidal rate (%) Monochoria vaginalis: CCC(CC)Cn1oc(=O)c(Cc2ccccc2NS(=O)(=O)C(F)(F)F)c1C [Compound 1-113] 100

Look up and state reported Herbicidal rate (%) Monochoria vaginalis for CCOC(=O)N(c1ccccc1Cc1c(C)n(C(C)(C)C)oc1=O)S(=O)(=O)C(F)(F)F [Compound 1-604] 90

Tell me Herbicidal rate (%) Monochoria vaginalis reported for Cc1c(Cc2ccccc2NS(=O)(=O)C(F)(F)F)c(=O)on1C(C)(C)C [Compound 1-101] 90
